Values from the supplement of paper PMC11780869

Tested on: Bacillus subtilis
Experiment Description: cleaved RNA product abundance (RNA/gDNA barcode ratio) relative to median wild-type variant (ratio to wild type); higher = more accumulation of the downstream cleavage product
Condition Info: experiment (reporter, strain, medium): exp 4a: truncated aprE reporter, strain BJT201 with 2% xylose (RNase J1 expressed); cleavage site: cggR-gapA (positions -7 to +36 mutated)
# cleaved RNA product abundance per entry
// keep it numeric: no unit symbol after the value

>>> measured("ACAGACGAAGGAGCCGCAAAGAATTTATTAAGGGATGAATAATCCCTCAACATAAATATCTCTCACTTATTTAAA")
0.365

IN: Can you look up cleaved RNA product abundance on Bacillus subtilis for ACAGACGAAGGAGCCGCAAAGAATATATTAAGGGATGAATAATCCCTCAATATAAATATCTCTCACTTATTTAAA ?
OUT: 0.375

IN: Can you look up cleaved RNA product abundance on Bacillus subtilis for ACAGACGAAGGAGCCGCAAAGAAGTTATTAAGGGATTAATAATCCCTCTATATAAATATCTCTCACTTATTTAAA ?
OUT: 0.547

IN: Can you look up cleaved RNA product abundance on Bacillus subtilis for ACAGACGAAGGAGCCGCAAAGAAGTTATTAACGGATGAATAACCCCTCAATATAAATATCTCTCACTTATTTAAA ?
OUT: 0.0802

IN: Can you look up cleaved RNA product abundance on Bacillus subtilis for ACAGACGAAGGAGCCGCAAAGAAGTTAATAAGGGATGAATAATCCCTCACTATAAATATCTCTCACTTATTTAAA ?
OUT: 0.263

IN: Can you look up cleaved RNA product abundance on Bacillus subtilis for ACAGACGAAGGAGCCGCAAAGAAGTGATTAAGGGATGAGTAATCCCTCAATATAAATATCTCTCACTTATTTAAA ?
OUT: 0.285

IN: Can you look up cleaved RNA product abundance on Bacillus subtilis for ACAGACGAAGGAGCCGCAAACTAGTTATTAAGGGATGAATAATCCCTCAATATAAATATCTCTCACTTATTTAAA ?
OUT: 0.991

* * *

Tested on: Bacillus subtilis
Experiment Description: cleaved RNA product abundance (RNA/gDNA barcode ratio) relative to median wild-type variant (ratio to wild type); higher = more accumulation of the downstream cleavage product
Condition Info: experiment (reporter, strain, medium): exp 4a: truncated aprE reporter, strain BJT201 with 2% xylose (RNase J1 expressed); cleavage site: cggR-gapA (positions -7 to +36 mutated)
# cleaved RNA product abundance per entry

Below are worked cases with known answers.
>>> measured("ACAGACGAAGGAGCCGCAAAGAAGTTATTAAGTTATGAATAATCCCTCAATATAAATATCTCTCACTTATTTAAA")
0.13
>>> measured("ACAGACGAAGGAGCCGCAAAGACGTTATTAAGGGATGAATAATCACTCAATATAAATATCTCTCACTTATTTAAA")
0.188
>>> measured("ACAGACGAAGGAGCCGCAAAGAATTTATTAAGGCATGAATAATCCCTCTATATAAATATCTCTCACTTATTTAAA")
0.107

IN: # get_value(readout='cleaved RNA product abundance', item= ACAGACGAAGGAGCCGCAAAGAAGTTATTATGGGATGAATAATCCCTCAATATAATTATCTCTCACTTATTTAAA )
OUT: 0.294

* * *

Test system: Bacillus subtilis
Experiment Description: cleaved RNA product abundance (RNA/gDNA barcode ratio) relative to median wild-type variant (ratio to wild type); higher = more accumulation of the downstream cleavage product
Condition Info: experiment (reporter, strain, medium): exp 4a: truncated aprE reporter, strain BJT201 with 2% xylose (RNase J1 expressed); cleavage site: cggR-gapA (positions -7 to +36 mutated)
Measured Metric: cleaved RNA product abundance
// keep it numeric: no unit symbol after the value

Below are worked cases with known answers.
>>> measured("ACAGACGAAGGAGCCGCAACGAAGTTATTAAGGGATGAATACTCCCTCAATATAAATATCTCTCACTTATTTAAA")
0.55
>>> measured("ACAGACGAAGGAGCCGCAAAGAAGTTATTAAGGGATGAATAATCCGTCAATATAATTATCTCTCACTTATTTAAA")
0.119
>>> measured("ACAGACGAAGGAGCCGCAAAGATGTTATTAAGGGATGAATAATCCCTCAACATAAATATCTCTCACTTATTTAAA")
0.223

IN: # get_value(readout='cleaved RNA product abundance', item= ACAGACGAAGGAGCCGCAAAGAAGTTATTAACGGATGAATAATCCCCCAATATAAATATCTCTCACTTATTTAAA )
OUT: 0.173

IN: # get_value(readout='cleaved RNA product abundance', item= ACAGACGAAGGAGCCGCAAAGAAGTTATTAAGTGATGAATAATCCCACAATATAAATATCTCTCACTTATTTAAA )
OUT: 0.0805

IN: # get_value(readout='cleaved RNA product abundance', item= ACAGACGAAGGAGCCGCAAAGAAGTTATTAAGGGATGAACAATCCCTCAATATAAATATCTCTCACTTATTTAAA )
OUT: 0.864

IN: # get_value(readout='cleaved RNA product abundance', item= ACAGACGAAGGAGCCGCAAAGAAGTTATCAAGGGATGAATAATCCATCAATATAAATATCTCTCACTTATTTAAA )
OUT: 0.321

* * *

# cleaved RNA product abundance per entry
Tested on: Bacillus subtilis
Experiment Description: cleaved RNA product abundance (RNA/gDNA barcode ratio) relative to median wild-type variant (ratio to wild type); higher = more accumulation of the downstream cleavage product
Condition Info: experiment (reporter, strain, medium): exp 2b: truncated aprE reporter, strain BJT200; cleavage site: cggR-gapA (positions -7 to +36 mutated)
// keep it numeric: no unit symbol after the value

Below are worked cases with known answers.
>>> measured("ACAGACGAAGGAGCCGCAAAGAAGTTTTTAAGGGATGAATAATGCCTCAATATAAATATCTCTCACTTATTTAAA")
0.121
>>> measured("ACAGACGAAGGAGCCGCAAAGAAGTTATTAAGGGATGAATAATCCCTCAATATAAATATCTCTCACTTATTTAAG")
0.868
>>> measured("ACAGACGAAGGAGCCGCAAAGAAGTTATTAATGGATGAATAATCGCTCAATATAAATATCTCTCACTTATTTAAA")
0.077
>>> measured("ACAGACGAAGGAGCCGCAAAGAAGTTATTAAGGGATCAATAATGCCTCAATATAAATATCTCTCACTTATTTAAA")
0.0953

IN: Can you look up cleaved RNA product abundance on Bacillus subtilis for ACAGACGAAGGAGCCGCAAAGAAATTATTAAGGGATGAATAATCCCTCTATATAAATATCTCTCACTTATTTAAA ?
OUT: 0.418

IN: Can you look up cleaved RNA product abundance on Bacillus subtilis for ACAGACGAAGGAGCCGCAAAGAAGTTATTAAGGGATGAATAATCCCTCAACAAAAATATCTCTCACTTATTTAAA ?
OUT: 0.105

IN: Can you look up cleaved RNA product abundance on Bacillus subtilis for ACAGACGAAGGAGCCGCAAAAAAGCTATTAAGGGATGAATAATCCCTCAATATAAATATCTCTCACTTATTTAAA ?
OUT: 0.392

* * *

Test system: Bacillus subtilis
Experiment Description: cleaved RNA product abundance (RNA/gDNA barcode ratio) relative to median wild-type variant (ratio to wild type); higher = more accumulation of the downstream cleavage product
Condition Info: experiment (reporter, strain, medium): exp 4a: truncated aprE reporter, strain BJT201 with 2% xylose (RNase J1 expressed); cleavage site: cggR-gapA (positions -7 to +36 mutated)
The label depends only on cleaved RNA product abundance: Criterion met if it is at least 0.3, Criterion not met if it is smaller.

>>> qualitative_label("ACAGACGAAGGAGCCGCAAAGAAGTTATTAAGGGATGAATAATCCCACAATATAAACATCTCTCACTTATTTAAA")
"Criterion not met"
>>> qualitative_label("ACAGACGAAGGAGCCGCAAAGAAGGTATTAAGTGATGAATAATCCCTCAATATAAATATCTCTCACTTATTTAAA")
"Criterion not met"
>>> qualitative_label("ACAGACGAAGGAGCCGCAAACAAGTTATTAAGGGATGAATAATCCCTTAATATAAATATCTCTCACTTATTTAAA")
"Criterion not met"
>>> qualitative_label("ACAGACGAAGGAGCCGCCAAGAAGTAATTAAGGGATGAATAATCCCTCAATATAAATATCTCTCACTTATTTAAA")
"Criterion met"
>>> qualitative_label("ACAGACGAAGGAGCCGCAAAGAAGTTATTAAGGAATGAATAATCCCTCAATATAAATAGCTCTCACTTATTTAAA")
"Criterion not met"

IN: Confirm if cleaved RNA product abundance reported for the sequence ACAGACGAAGGAGCCGCAAAGAAGTTATTAACGGATGAATAATCACTCAATATAAATATCTCTCACTTATTTAAA is 0.3 or above.
OUT: Criterion not met

IN: Confirm if cleaved RNA product abundance reported for the sequence ACAGACGAAGGAGCCGCACAGAAGTTATTAAGGGATGAATAATCCCTCAAAATAAATATCTCTCACTTATTTAAA is 0.3 or above.
OUT: Criterion met

IN: Confirm if cleaved RNA product abundance reported for the sequence ACAGACGAAGGAGCCGCAAATTAGTTATTAAGGGATGAATAATCCCTCTATATAAATATCTCTCACTTATTTAAA is 0.3 or above.
OUT: Criterion not met

IN: Confirm if cleaved RNA product abundance reported for the sequence ACAGACGAAGGAGCCGCGAAGAAGTTATTAAGGGATAAATAATCCCTCAATATAAATATCTCTCACTTATTTAAA is 0.3 or above.
OUT: Criterion met

IN: Confirm if cleaved RNA product abundance reported for the sequence ACAGACGAAGGAGCCGCAAAGAAGTAATTAAGGAATGAATAATCCCTCAATATAAATATCTCTCACTTATTTAAA is 0.3 or above.
OUT: Criterion not met

IN: Confirm if cleaved RNA product abundance reported for the sequence ACAGACGAAGGAGCCGCAAAGAAGATATTAAGGGATGAATAATCCCTCAATATAAATAACTCTCACTTATTTAAA is 0.3 or above.
OUT: Criterion met
